# credit: PubChem BioAssay (NCATS)

system_tested: Muscarinic acetylcholine receptor M1 (Rattus norvegicus)
method_notes: qHTS Assay for Antagonists of Acetylcholine Muscarinic M1 Receptor: Kinetic Measurement of Intracellular Calcium Response (AID 943); further: nearly all actives have a fitted effect of over 75% in size
condition: M1-expressing cells, kinetic intracellular calcium fluorescence; series mostly up to 35.3 µM
Results filed as inconclusive are left out. Calls of active or inactive are those of the source. The call rests on the fitted dose curve; in most records, active means well fitted inhibition curve with a large enough effect; inconclusive means small, poorly fitted or top-dose-only effect; inactive means no such curve, though single readings can be large or run the other way.
Possible outcomes: yes = active, no = inactive

[
  {
    "molecule": "CN1[C@@H]2CC[C@H]1CC(NC(=O)c1nn(C)c3ccccc13)C2 (some centres undefined)",
    "assigned_label": "no"
  },
  {
    "molecule": "CN[C@]1(C)[C@@H]2CC[C@@H](C2)C1(C)C",
    "assigned_label": "no"
  },
  {
    "molecule": "OC[C@@H]1O[C@H](O)[C@@H](Cl)[C@H](O)[C@@H]1O",
    "assigned_label": "no"
  },
  {
    "molecule": "CN(C)C(=O)/N=N\\C(=O)N(C)C",
    "assigned_label": "no"
  },
  {
    "molecule": "COc1cc([C@H](O)C(=O)O)ccc1O",
    "assigned_label": "no"
  },
  {
    "molecule": "O=S(=O)(NCCNC/C=C\\c1ccc(Br)cc1)c1cccc2cnccc12",
    "assigned_label": "yes"
  },
  {
    "molecule": "Nc1ncnc2c1nc(Br)n2[C@@H]1O[C@H]2COP(=O)(O)O[C@@H]2[C@H]1O",
    "assigned_label": "no"
  },
  {
    "molecule": "CC(C)[C@H]1C(=O)C(C(N)=O)=C(O)[C@]2(O)C(=O)C3=C(O)c4c(O)ccc(N(C)C)c4C[C@H]3C[C@@H]12",
    "assigned_label": "no"
  },
  {
    "molecule": "Nc1ncnc2c1ncn2[C@@H]1O[C@@H](C(=O)NC2CC2)[C@H](O)[C@@H]1O",
    "assigned_label": "no"
  },
  {
    "molecule": "Nc1ccc(CCNc2ncnc3c2ncn3[C@@H]2O[C@@H](CO)[C@H](O)[C@@H]2O)cc1",
    "assigned_label": "no"
  },
  {
    "molecule": "OC[C@@H]1O[C@@H](n2cnc3c(N[C@@H]4C[C@@H]5CC[C@H]4C5)ncnc32)[C@@H](O)[C@H]1O",
    "assigned_label": "no"
  },
  {
    "molecule": "NC(N)=N[C@H](CCC(=O)O)C(=O)O",
    "assigned_label": "no"
  },
  {
    "molecule": "CCCC[C@]1(C2CCCC2)Cc2cc(OCC(=O)O)c(Cl)c(Cl)c2C1=O",
    "assigned_label": "no"
  },
  {
    "molecule": "C[C@H](O)[C@H](O)[C@@H]1CNc2nc(N)[nH]c(=O)c2N1",
    "assigned_label": "no"
  }
]
